B1: TPR 5TU (parent)
chain: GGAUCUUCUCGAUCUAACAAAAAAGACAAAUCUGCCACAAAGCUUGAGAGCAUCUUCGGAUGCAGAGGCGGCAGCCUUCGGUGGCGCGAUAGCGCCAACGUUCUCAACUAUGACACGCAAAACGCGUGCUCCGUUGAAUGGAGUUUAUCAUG

Variants of: B1
test method notes: polymerase ribozyme fitness, log enrichment relative to wild type (log ratio); higher = more active; in vitro selection for triplet polymerase activity
Fewer inactive variants are shown than the library holds.
recorded endpoint: polymerase ribozyme fitness (log ratio)

- variant designation: "U31G A91U"
  recorded endpoint: "polymerase ribozyme fitness (log ratio)"
  value comparator: "="
  assay value: -4.03
- variant designation: "G46U U77G C87U A89U C93A G124U"
  recorded endpoint: "polymerase ribozyme fitness (log ratio)"
  value comparator: "≤"
  assay value: -4.2
- variant designation: "C38U U53A U61A"
  recorded endpoint: "polymerase ribozyme fitness (log ratio)"
  value comparator: "="
  assay value: -1.44
- variant designation: "A26U G86U"
  recorded endpoint: "polymerase ribozyme fitness (log ratio)"
  value comparator: "="
  assay value: -3.84
- variant designation: "U15A C27G A30U G68A A89U C95G A98U"
  recorded endpoint: "polymerase ribozyme fitness (log ratio)"
  value comparator: "≤"
  assay value: -4.2
- variant designation: "A40G A41U"
  recorded endpoint: "polymerase ribozyme fitness (log ratio)"
  value comparator: "="
  assay value: -2.41
- variant designation: "C38A G83A"
  recorded endpoint: "polymerase ribozyme fitness (log ratio)"
  value comparator: "="
  assay value: -0.746
- variant designation: "U13C A19U U55A G83A U111G"
  recorded endpoint: "polymerase ribozyme fitness (log ratio)"
  value comparator: "≤"
  assay value: -4.2
- variant designation: "C10U A52U C85A"
  recorded endpoint: "polymerase ribozyme fitness (log ratio)"
  value comparator: "≤"
  assay value: -4.2
- variant designation: "G42C U55A G92C A115U A150U"
  recorded endpoint: "polymerase ribozyme fitness (log ratio)"
  value comparator: "≤"
  assay value: -4.2
- variant designation: "C63G C72U C93U"
  recorded endpoint: "polymerase ribozyme fitness (log ratio)"
  value comparator: "="
  assay value: -0.337
- variant designation: "A17G C32G C76U"
  recorded endpoint: "polymerase ribozyme fitness (log ratio)"
  value comparator: "≤"
  assay value: -4.2
- variant designation: "A22U C36G C105G"
  recorded endpoint: "polymerase ribozyme fitness (log ratio)"
  value comparator: "≤"
  assay value: -4.2
- variant designation: "C75G G84A A107U A121U U151C"
  recorded endpoint: "polymerase ribozyme fitness (log ratio)"
  value comparator: "≤"
  assay value: -4.2
- variant designation: "A22U C38U C51U U53A C54A C85G"
  recorded endpoint: "polymerase ribozyme fitness (log ratio)"
  value comparator: "≤"
  assay value: -4.2
- variant designation: "C14U G50C A98U C108A"
  recorded endpoint: "polymerase ribozyme fitness (log ratio)"
  value comparator: "≤"
  assay value: -4.2
- variant designation: "C51A A60G A89U"
  recorded endpoint: "polymerase ribozyme fitness (log ratio)"
  value comparator: "="
  assay value: -1.65
- variant designation: "G68C C96G U139A"
  recorded endpoint: "polymerase ribozyme fitness (log ratio)"
  value comparator: "≤"
  assay value: -4.2
- variant designation: "A41C C96U A107U C131A G133A U146C"
  recorded endpoint: "polymerase ribozyme fitness (log ratio)"
  value comparator: "≤"
  assay value: -4.2
- variant designation: "U55G G62A"
  recorded endpoint: "polymerase ribozyme fitness (log ratio)"
  value comparator: "="
  assay value: -2.48
- variant designation: "U55A A73U C99U U145C"
  recorded endpoint: "polymerase ribozyme fitness (log ratio)"
  value comparator: "≤"
  assay value: -4.2
- variant designation: "C54A U56G C95A A120G"
  recorded endpoint: "polymerase ribozyme fitness (log ratio)"
  value comparator: "="
  assay value: -1.33
- variant designation: "U55A C93G G143A"
  recorded endpoint: "polymerase ribozyme fitness (log ratio)"
  value comparator: "="
  assay value: -3.93
- variant designation: "C8U C18A A20C A23C G62C A89G G136U"
  recorded endpoint: "polymerase ribozyme fitness (log ratio)"
  value comparator: "≤"
  assay value: -4.2
- variant designation: "C54A C116G"
  recorded endpoint: "polymerase ribozyme fitness (log ratio)"
  value comparator: "="
  assay value: -0.685
- variant designation: "C93U G133U"
  recorded endpoint: "polymerase ribozyme fitness (log ratio)"
  value comparator: "="
  assay value: -3.7
- variant designation: "A30G C32A C43A C93A C105A"
  recorded endpoint: "polymerase ribozyme fitness (log ratio)"
  value comparator: "≤"
  assay value: -4.2
- variant designation: "C87G G141U"
  recorded endpoint: "polymerase ribozyme fitness (log ratio)"
  value comparator: "="
  assay value: -3.61
- variant designation: "U7C A21C U33G C43U G62A C87U"
  recorded endpoint: "polymerase ribozyme fitness (log ratio)"
  value comparator: "≤"
  assay value: -4.2
- variant designation: "G67C A91C"
  recorded endpoint: "polymerase ribozyme fitness (log ratio)"
  value comparator: "≤"
  assay value: -4.2
- variant designation: "A91U U134G A137U"
  recorded endpoint: "polymerase ribozyme fitness (log ratio)"
  value comparator: "≤"
  assay value: -4.2
- variant designation: "C96A U146A U148A"
  recorded endpoint: "polymerase ribozyme fitness (log ratio)"
  value comparator: "="
  assay value: -4.17
- variant designation: "A29U A37G C54U C87G C116A"
  recorded endpoint: "polymerase ribozyme fitness (log ratio)"
  value comparator: "≤"
  assay value: -4.2
- variant designation: "U6G G11A"
  recorded endpoint: "polymerase ribozyme fitness (log ratio)"
  value comparator: "="
  assay value: -0.786
- variant designation: "U109C C114U"
  recorded endpoint: "polymerase ribozyme fitness (log ratio)"
  value comparator: "="
  assay value: -3.87
- variant designation: "G88C G126C"
  recorded endpoint: "polymerase ribozyme fitness (log ratio)"
  value comparator: "≤"
  assay value: -4.2
- variant designation: "C57U G83U"
  recorded endpoint: "polymerase ribozyme fitness (log ratio)"
  value comparator: "="
  assay value: -1.72
- variant designation: "A23C G48C G68C C99U U101C A122U U144G"
  recorded endpoint: "polymerase ribozyme fitness (log ratio)"
  value comparator: "≤"
  assay value: -4.2
- variant designation: "G84U U145A"
  recorded endpoint: "polymerase ribozyme fitness (log ratio)"
  value comparator: "="
  assay value: -1.53
- variant designation: "C32A C36G A47G C72G A89G A91G"
  recorded endpoint: "polymerase ribozyme fitness (log ratio)"
  value comparator: "≤"
  assay value: -4.2
- variant designation: "C18U A52G G83C U146G"
  recorded endpoint: "polymerase ribozyme fitness (log ratio)"
  value comparator: "="
  assay value: -2.39
- variant designation: "C57A A89G A91G U145C U151G"
  recorded endpoint: "polymerase ribozyme fitness (log ratio)"
  value comparator: "≤"
  assay value: -4.2
- variant designation: "U6A U53A G86A A91C G128C"
  recorded endpoint: "polymerase ribozyme fitness (log ratio)"
  value comparator: "≤"
  assay value: -4.2
- variant designation: "C118G"
  recorded endpoint: "polymerase ribozyme fitness (log ratio)"
  value comparator: "="
  assay value: -1.01
- variant designation: "G50C U90A"
  recorded endpoint: "polymerase ribozyme fitness (log ratio)"
  value comparator: "≤"
  assay value: -4.2
- variant designation: "U6G A28U A41G G88C G143A U144C U146G"
  recorded endpoint: "polymerase ribozyme fitness (log ratio)"
  value comparator: "≤"
  assay value: -4.2
- variant designation: "A89U C96U A138G U146G"
  recorded endpoint: "polymerase ribozyme fitness (log ratio)"
  value comparator: "≤"
  assay value: -4.2
- variant designation: "A24G G62U C85U U146A"
  recorded endpoint: "polymerase ribozyme fitness (log ratio)"
  value comparator: "≤"
  assay value: -4.2
- variant designation: "A52C C57U U102G U146G"
  recorded endpoint: "polymerase ribozyme fitness (log ratio)"
  value comparator: "≤"
  assay value: -4.2
- variant designation: "C27A C54G G67U G84C"
  recorded endpoint: "polymerase ribozyme fitness (log ratio)"
  value comparator: "≤"
  assay value: -4.2
- variant designation: "A47C G68A C96G C99A"
  recorded endpoint: "polymerase ribozyme fitness (log ratio)"
  value comparator: "≤"
  assay value: -4.2
- variant designation: "A41G U55G G59A U145A"
  recorded endpoint: "polymerase ribozyme fitness (log ratio)"
  value comparator: "="
  assay value: -0.554
- variant designation: "A29U U45A G94C C105A A113U U130G U135G"
  recorded endpoint: "polymerase ribozyme fitness (log ratio)"
  value comparator: "≤"
  assay value: -4.2
- variant designation: "U4A C38U A41U G59A A137U"
  recorded endpoint: "polymerase ribozyme fitness (log ratio)"
  value comparator: "="
  assay value: -4.07
- variant designation: "A16G A22U A91U C93U U102G G128U"
  recorded endpoint: "polymerase ribozyme fitness (log ratio)"
  value comparator: "≤"
  assay value: -4.2
- variant designation: "A52G U56A C87A C93A A113G U135A"
  recorded endpoint: "polymerase ribozyme fitness (log ratio)"
  value comparator: "≤"
  assay value: -4.2
- variant designation: "U4A A147C"
  recorded endpoint: "polymerase ribozyme fitness (log ratio)"
  value comparator: "="
  assay value: -0.789
- variant designation: "C96U U102C C125U"
  recorded endpoint: "polymerase ribozyme fitness (log ratio)"
  value comparator: "="
  assay value: -2.51
- variant designation: "U6A C18A A21U U56G G68A A91U G128C U139A G143A"
  recorded endpoint: "polymerase ribozyme fitness (log ratio)"
  value comparator: "≤"
  assay value: -4.2
- variant designation: "C85G G136A"
  recorded endpoint: "polymerase ribozyme fitness (log ratio)"
  value comparator: "="
  assay value: -1.31
- variant designation: "A22C C57A C118U"
  recorded endpoint: "polymerase ribozyme fitness (log ratio)"
  value comparator: "="
  assay value: -1.03
- variant designation: "G50C C54U U56A G59U"
  recorded endpoint: "polymerase ribozyme fitness (log ratio)"
  value comparator: "="
  assay value: -3.48
- variant designation: "A137U U145A A147C"
  recorded endpoint: "polymerase ribozyme fitness (log ratio)"
  value comparator: "≤"
  assay value: -4.2
- variant designation: "G70C G83A C87U G117C"
  recorded endpoint: "polymerase ribozyme fitness (log ratio)"
  value comparator: "="
  assay value: -3.9
- variant designation: "C43U A47C U56A U78G C87G"
  recorded endpoint: "polymerase ribozyme fitness (log ratio)"
  value comparator: "≤"
  assay value: -4.2
- variant designation: "A26C C35U G88U C96G C108U G143A"
  recorded endpoint: "polymerase ribozyme fitness (log ratio)"
  value comparator: "≤"
  assay value: -4.2
- variant designation: "A47U A89G C131A"
  recorded endpoint: "polymerase ribozyme fitness (log ratio)"
  value comparator: "≤"
  assay value: -4.2
- variant designation: "C57A U101G"
  recorded endpoint: "polymerase ribozyme fitness (log ratio)"
  value comparator: "="
  assay value: 0.71
- variant designation: "A20U A113C G133C"
  recorded endpoint: "polymerase ribozyme fitness (log ratio)"
  value comparator: "≤"
  assay value: -4.2
- variant designation: "A17C C131G"
  recorded endpoint: "polymerase ribozyme fitness (log ratio)"
  value comparator: "="
  assay value: -3.09
- variant designation: "A28G G88U G92A A98G G133U U144A"
  recorded endpoint: "polymerase ribozyme fitness (log ratio)"
  value comparator: "≤"
  assay value: -4.2
- variant designation: "C85U U127G"
  recorded endpoint: "polymerase ribozyme fitness (log ratio)"
  value comparator: "="
  assay value: -3.46
- variant designation: "A22G G92A C108G"
  recorded endpoint: "polymerase ribozyme fitness (log ratio)"
  value comparator: "≤"
  assay value: -4.2
- variant designation: "A21U A23U A24C C54U G81A C85U"
  recorded endpoint: "polymerase ribozyme fitness (log ratio)"
  value comparator: "≤"
  assay value: -4.2
- variant designation: "U33A"
  recorded endpoint: "polymerase ribozyme fitness (log ratio)"
  value comparator: "="
  assay value: -3.29
- variant designation: "A17C G81U C85A C95U C105G"
  recorded endpoint: "polymerase ribozyme fitness (log ratio)"
  value comparator: "="
  assay value: -1.64
- variant designation: "C27U U61G U82G A89U A91G G100A A113U G140U"
  recorded endpoint: "polymerase ribozyme fitness (log ratio)"
  value comparator: "≤"
  assay value: -4.2
- variant designation: "A23G U44G U53G A91C C95U C103A G117A A121C G126A"
  recorded endpoint: "polymerase ribozyme fitness (log ratio)"
  value comparator: "≤"
  assay value: -4.2
- variant designation: "C35G G58C C75G C76U A89U C95G C108A A137C"
  recorded endpoint: "polymerase ribozyme fitness (log ratio)"
  value comparator: "≤"
  assay value: -4.2
- variant designation: "U6C A23G U61A"
  recorded endpoint: "polymerase ribozyme fitness (log ratio)"
  value comparator: "≤"
  assay value: -4.2
- variant designation: "C54A G59U A60C G83A C116A"
  recorded endpoint: "polymerase ribozyme fitness (log ratio)"
  value comparator: "="
  assay value: -2.11
- variant designation: "C10G A73G G92U"
  recorded endpoint: "polymerase ribozyme fitness (log ratio)"
  value comparator: "≤"
  assay value: -4.2
- variant designation: "G50C G65A"
  recorded endpoint: "polymerase ribozyme fitness (log ratio)"
  value comparator: "="
  assay value: -3.27
- variant designation: "C125G A142C"
  recorded endpoint: "polymerase ribozyme fitness (log ratio)"
  value comparator: "="
  assay value: -4.01
- variant designation: "A19G C87A C116A G143C U145G G152U"
  recorded endpoint: "polymerase ribozyme fitness (log ratio)"
  value comparator: "≤"
  assay value: -4.2
- variant designation: "C95U C149A"
  recorded endpoint: "polymerase ribozyme fitness (log ratio)"
  value comparator: "≤"
  assay value: -4.2
- variant designation: "C10U U15A G50C C76U C85A"
  recorded endpoint: "polymerase ribozyme fitness (log ratio)"
  value comparator: "≤"
  assay value: -4.2
- variant designation: "A20C C87U"
  recorded endpoint: "polymerase ribozyme fitness (log ratio)"
  value comparator: "="
  assay value: -1.36
- variant designation: "U53G A73G C85U G126U"
  recorded endpoint: "polymerase ribozyme fitness (log ratio)"
  value comparator: "="
  assay value: -2.37
- variant designation: "A21U C57A A89U"
  recorded endpoint: "polymerase ribozyme fitness (log ratio)"
  value comparator: "="
  assay value: -0.571
- variant designation: "G50C U55G G67A C75A C87U U134G A137G"
  recorded endpoint: "polymerase ribozyme fitness (log ratio)"
  value comparator: "≤"
  assay value: -4.2
